Measured IC50 of individual entries
biological target: CREBBP (Homo sapiens); experiment: NanoBRET assay, CREBBP bromodomain; conditions: NanoBRET in HEK293 cells, read after 4 hours incubation; mean ± Standard Deviation
Sequence (Q92793 1085-1192 limits assumed): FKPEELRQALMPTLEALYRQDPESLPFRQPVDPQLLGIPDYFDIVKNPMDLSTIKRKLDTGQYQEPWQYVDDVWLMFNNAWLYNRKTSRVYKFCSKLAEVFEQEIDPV
Dear colleague, please return just the value in nM, with no unit written.

structure-notation	IC50 / nM
CCNC(=O)c1ccc(-c2cc3cccc(-c4nn(C)c5c4CN(C)C(=O)CC5)c3cn2)cn1	18.6

Let us examine a further case.
Report IC50 for CNC(=O)c1ccc(-c2cc3cccc(-c4nn(C)c5c4CN(C)C(=O)CC5)c3cn2)cn1 please.
16

---

tested on: NCI-H1048; experiment: Cell growth inhibition assay, NCI-H1048; type: cell-based; conditions: Homo sapiens, 168 h; NCI-H1048, 7 days
observed-property: IC50 (nM)
Express it in nM; write the number only.

structure-notation	IC50 [nM]
CCNC(=O)c1ccc(-c2cc3cccc(-c4nn(C)c5c4CN(C)C(=O)CC5)c3cn2)cn1	18

Next compound, IC50 to be filled in.
Using the record for CNC(=O)c1ccc(-c2cc3cccc(-c4nn(C)c5c4CN(C)C(=O)CC5)c3cn2)cn1 , report its IC50.
10

---

molecular target: UniProt Q09472; assay: NanoBRET assay, EP300 bromodomain; conditions: NanoBRET in HEK293 cells, read after 4 hours incubation; mean ± Standard Deviation
Sequence (Q09472 1049-1156 limits assumed): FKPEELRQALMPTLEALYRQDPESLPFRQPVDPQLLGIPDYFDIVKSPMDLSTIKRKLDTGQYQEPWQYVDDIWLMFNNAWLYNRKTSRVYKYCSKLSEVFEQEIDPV
observed-property: IC50 (nM)
Output spec: scalar in nM, unitless text.

structure-notation	unit-info	result
CNC(=O)c1ccc(-c2cc3cccc(-c4nn(C)c5c4CN(C)C(=O)CC5)c3cn2)cn1	nM	15.1

Give the measured IC50 of CCNC(=O)c1ccc(-c2cc3cccc(-c4nn(C)c5c4CN(C)C(=O)CC5)c3cn2)cn1 .
26.1

---

tested on: EOL-1; test: Cell growth inhibition assay, EOL-1; assay type: cell-based; conditions: Homo sapiens, EOL1, 168 h; EOL-1, 7 days
Listed here: items and their measured IC50.
Numeric only. Scale: nM

structure-notation	IC50 / nM
CNC(=O)c1ccc(-c2cc3cccc(-c4nn(C)c5c4CN(C)C(=O)CC5)c3cn2)cn1	0.8

// switching to the query compound
Form entry - test system: EOL-1; read-out: IC50; compound: CCNC(=O)c1ccc(-c2cc3cccc(-c4nn(C)c5c4CN(C)C(=O)CC5)c3cn2)cn1
1

---

Recorded Kd values for a group of molecules are listed next.
molecular target: BRD4 (BD1, BD2) (Homo sapiens, UniProt O60885); construct: BRD4 (Bromodomain 1 (BD1) and Bromodomain 2 (BD2)); test: BromoKdELECT platform assay, BRD4 (BD1, BD2); conditions: 11 points dose-response, mean from a duplicate experiment
Only the number, expressed in µM, is required.

molecule	Kd / µM
CNC(=O)c1ccc(-c2cc3cccc(-c4nn(C)c5c4CN(C)C(=O)CC5)c3cn2)cn1 [Example 1]	4.4

--- query ---
So what does the record say about Kd for CCNC(=O)c1ccc(-c2cc3cccc(-c4nn(C)c5c4CN(C)C(=O)CC5)c3cn2)cn1 [Example 2] ?
7.4

---

tested on: MDA-MIB-453; assay: Cell growth inhibition assay, MDA-MIB-453; assay type: cell-based; conditions: 168 h; MDA-MIB-453, 7 days
observed-property: IC50 (nM)
Your answer is read as nM, so omit the unit and give the number.

compound	test-target	result
CCNC(=O)c1ccc(-c2cc3cccc(-c4nn(C)c5c4CN(C)C(=O)CC5)c3cn2)cn1 [Example 2]	MDA-MIB-453	35

Shifting focus to the compound that follows.
Report IC50 for CNC(=O)c1ccc(-c2cc3cccc(-c4nn(C)c5c4CN(C)C(=O)CC5)c3cn2)cn1 [Example 1] tested on MDA-MIB-453.
28
